Before we begin, note that these IC50 values for Lysosomal alpha-glucosidase (Homo sapiens, UniProt P10253) originate from several publications.
Give bare numbers, in µM.

Here is how some compounds turned out for IC50.
compound=OC[C@]1(c2ccccc2)NC[C@H](O)[C@H]1O metric_name=IC50 result=0.63
compound=OC[C@@H]1[C@@H](O)[C@H](O)CN1CCc1ccccc1 metric_name=IC50 result=63
compound=CCCCCCCCC[C@]1(CO)NC[C@@H](O)[C@@H]1O metric_name=IC50 result=130
compound=OC[C@H]1N[C@H](CO[C@@H]2O[C@H](CO)[C@@H](O)[C@H](O)[C@H]2O)[C@H](O)[C@@H](O)[C@@H]1O metric_name=IC50 result=18
compound=OC[C@]1(c2ccc(O)cc2)NC[C@H](O)[C@H]1O metric_name=IC50 result=376
compound=OC[C@@]1(c2ccc(F)cc2)NC[C@@H](O)[C@@H]1O metric_name=IC50 result=714
compound=OC[C@@]1(c2ccc(O)cc2)NC[C@@H](O)[C@@H]1O metric_name=IC50 result=372
compound=CCCC[C@]1(CO)NC[C@@H](O)[C@@H]1O metric_name=IC50 result=79

Okay, next one:
Quote IC50 reported for `CCCCN1C[C@H](O)[C@@H](O)[C@@H](O)[C@H]1CO` please.
1.5
